All figures here come from ChEMBL document CHEMBL4689842.

Test system: HEK-293T
Protocol Summary: Multiplex assay against HEK293T
Assay type: toxicity, cell-based
Protocol Conditions: human, 48 h, 1 µM, compound concentration 1 uM, replicate 2
Listed compounds paired with reported Population Apoptotic (%)
Reported Property: Population Apoptotic (%)

Compound: CCCCCNC(=N)N/N=C/c1c[nH]c2ccc(OC)cc12.O=C(O)/C=C\C(=O)O [TEGASEROD MALEATE]
Readout Value: 33%

Compound: CC(C)C[C@H](NC(=O)[C@H](Cc1ccccc1)NC(=O)CNC(=O)CNC(=O)[C@@H](N)Cc1ccc(O)cc1)C(=O)O [ENKEPHALIN]
Readout Value: 9%

Compound: CN1C(=O)[C@@H](NC(=O)c2cc3ccccc3[nH]2)N=C(c2ccccc2)c2ccccc21 [DEVAZEPIDE]
Readout Value: 9%

Compound: CN(c1cc(C(F)(F)F)nc(OCCC(=O)O)n1)c1cccc2c1CCC2
Readout Value: 7%

Compound: Cc1ccc(S(=O)(=O)NC2c3ccccc3Oc3ccccc32)cc1
Readout Value: 13%

Compound: C=CC(=O)Nc1cc(-n2c(=O)ccc3cnc4ccc(-c5ccc(NS(C)(=O)=O)cc5)cc4c32)ccc1C
Readout Value: 9%

Compound: CC(C)[C@H](CO)Nc1nc(Nc2cccc(Cl)c2)c2ncn(C(C)C)c2n1 [PURVALANOLA]
Readout Value: 13%

Compound: Oc1cccc(-c2nc(N3CCOCC3)c3oc4ncccc4c3n2)c1 [PI-103]
Readout Value: 50%

Compound: N#Cc1cccc(C(=O)Nc2cc(-c3ccccc3)nn2-c2ccccc2)c1
Readout Value: 19%

Compound: Cl.NC[C@@H]1O[C@H](C23CC4CC(CC(C4)C2)C3)Cc2c1ccc(O)c2O
Readout Value: 8%
